tested on: rodent lifetime carcinogenesis bioassay, tumor incidence TD50; test: carcinogenic potency in animals, long-term in vivo studies, CPDB compilation (AID 1745844); conditions: rat; strain Sprague-Dawley; males; i.p.; site: any site (literature study); lesion: several types; types named in the paper; dosed 52 weeks; study length 81 weeks
Activity calls are given as the source filed them. How the calls were made is not given here.
value kind: TD50

So, CC(CN1CC(=O)NC(=O)C1)N1CC(=O)NC(=O)C1 (stereo unspecified) ? Its TD50 was 9.55 mg/kg/day (inactive)

====

tested on: rodent lifetime carcinogenesis bioassay, tumor incidence TD50; assay: carcinogenic potency in animals, long-term in vivo studies, CPDB compilation (AID 1745844); details: mouse; strain C57BL/10J; males; i.p.; site: liver; lesion: hepatocellular carcinoma; dosed 35 weeks; study length 59 weeks
value kind: TD50

Record summary for C=COC(N)=O : reported TD50 = 0.629 mg/kg/day
